Attribution: ChEMBL document CHEMBL5223147

TARGET DESC: Tyrosine-protein kinase JAK2 (Homo sapiens) (UniProt O60674)
Sequence (O60674 whole entry): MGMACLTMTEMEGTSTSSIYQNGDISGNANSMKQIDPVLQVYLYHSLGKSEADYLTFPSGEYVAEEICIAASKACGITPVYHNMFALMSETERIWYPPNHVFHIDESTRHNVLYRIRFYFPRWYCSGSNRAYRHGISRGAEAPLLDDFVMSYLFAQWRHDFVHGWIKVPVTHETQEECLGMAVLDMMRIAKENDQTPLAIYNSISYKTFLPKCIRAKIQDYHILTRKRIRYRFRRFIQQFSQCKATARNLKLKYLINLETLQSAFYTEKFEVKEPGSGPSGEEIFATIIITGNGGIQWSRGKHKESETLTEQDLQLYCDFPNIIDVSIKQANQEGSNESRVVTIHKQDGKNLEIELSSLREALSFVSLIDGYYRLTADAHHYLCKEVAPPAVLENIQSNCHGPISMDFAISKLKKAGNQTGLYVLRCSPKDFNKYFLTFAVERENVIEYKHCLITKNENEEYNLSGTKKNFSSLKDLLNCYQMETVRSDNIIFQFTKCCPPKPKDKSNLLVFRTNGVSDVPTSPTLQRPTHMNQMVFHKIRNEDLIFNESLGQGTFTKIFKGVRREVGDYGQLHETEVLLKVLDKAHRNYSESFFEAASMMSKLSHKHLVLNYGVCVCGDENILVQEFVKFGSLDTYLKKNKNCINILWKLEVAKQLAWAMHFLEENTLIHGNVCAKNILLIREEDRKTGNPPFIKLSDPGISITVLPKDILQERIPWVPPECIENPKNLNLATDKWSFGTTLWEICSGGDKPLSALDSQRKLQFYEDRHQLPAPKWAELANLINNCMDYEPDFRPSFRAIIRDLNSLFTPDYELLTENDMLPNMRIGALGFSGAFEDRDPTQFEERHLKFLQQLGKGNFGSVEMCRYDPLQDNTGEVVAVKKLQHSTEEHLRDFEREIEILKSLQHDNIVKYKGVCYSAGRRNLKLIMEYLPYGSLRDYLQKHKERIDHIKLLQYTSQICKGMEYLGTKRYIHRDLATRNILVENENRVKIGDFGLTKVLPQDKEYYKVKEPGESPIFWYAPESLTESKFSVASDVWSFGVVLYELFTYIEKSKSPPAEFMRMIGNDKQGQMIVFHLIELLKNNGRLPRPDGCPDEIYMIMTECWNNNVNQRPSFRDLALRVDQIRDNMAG
ASSAY DETAILS: Induction of JAK2 degradation in human Jurkat cells at 1 uM incubated for 6 hrs by Western blot analysis
Assay type: cell-based
The source made the active and inactive calls. The rule behind the calls is not given here.
Outcome (select one): active, inactive

Write down the call the test reported for this compound. Item: `CNC(=O)c1cnc(Nc2ccc(C(=O)NCCCCCCCC(=O)N[C@H](C(=O)N3C[C@H](O)C[C@H]3C(=O)NCc3ccc(-c4scnc4C)cc3)C(C)(C)C)cn2)cc1Nc1cccc(C(=O)NC)c1OC`
inactive

Write down the call the test reported for this compound. Item: `CNC(=O)c1cnc(Nc2ccc(C(=O)NCCCC(=O)N[C@H](C(=O)N3C[C@H](O)C[C@H]3C(=O)NCc3ccc(-c4scnc4C)cc3)C(C)(C)C)cn2)cc1Nc1cccc(C(=O)NC)c1OC`
active

Write down the call the test reported for this compound. Item: `CNC(=O)c1cnc(Nc2ccc(C(=O)NCCCCCCCCCCC(=O)N[C@H](C(=O)N3C[C@H](O)C[C@H]3C(=O)NCc3ccc(-c4scnc4C)cc3)C(C)(C)C)cn2)cc1Nc1cccc(C(=O)NC)c1OC`
inactive

Write down the call the test reported for this compound. Item: `CNC(=O)c1cnc(Nc2ccc(C(=O)NCCCCCCCCCC(=O)N[C@H](C(=O)N3C[C@H](O)C[C@H]3C(=O)NCc3ccc(-c4scnc4C)cc3)C(C)(C)C)cn2)cc1Nc1cccc(C(=O)NC)c1OC`
inactive

Write down the call the test reported for this compound. Item: `CNC(=O)c1cnc(Nc2ccc(C(=O)NCCCCCCCCCC(=O)N[C@H](C(=O)N3C[C@H](O)C[C@H]3C(=O)NCc3ccc(-c4scnc4C)cc3)C(C)(C)C)cn2)cc1Nc1cccc(-c2ncn(C)n2)c1OC`
active
